Target: RIPK1 (Homo sapiens (Human))
Assay: RIPK1-ADP-Glo Enzymatic Assay
Conditions: recombinant GST-RIPK1 kinase domain (residues 1-327), 25 nM, ten-point titration, 30 minutes pre-incubation
Returns the class for an entry based on its EC50. Class ranges: low: < 30 nM; intermediate: ≥ 30 nM and < 80 nM; high: ≥ 80 nM

See these solved cases before continuing.
INSERT INTO assay_data (molecule, class_assignment) VALUES
  ('O=C1N2[C@H](c3cc(F)cc(F)c3)CCN2CC12CCN(c1cc(N3CCCC3)ncn1)CC2', 'high'),
  ('N#Cc1cc(Cl)nc(N2CCC3(CC2)CN2CC[C@@H](c4cc(F)cc(F)c4)N2C3=O)c1', 'intermediate'),
  ('O=C1N2[C@H](c3cc(F)cc(F)c3)CCN2CC12CCN(c1cccc(F)n1)CC2 [Example 1.12]', 'low'),
  ('O=C1N2[C@H](c3cc(F)cc(F)c3)CCN2CC12CCN(c1ncc(C3CC3)cn1)CC2', 'high'),
  ('O=C(c1cc(F)c(F)c(F)c1)N1CCC2(CC1)CN1CC[C@@H](c3cc(F)cc(F)c3)N1C2=O', 'intermediate'),
  ('O=C(c1ccccc1)N1CCC2(CC1)CN1CC[C@@H](c3cc(F)cc(F)c3)N1C2=O', 'low');

Okay, next one:
Exam item: Textbook exercise: identify the category of the molecule given here, `O=C1N2[C@H](c3cc(F)cc(F)c3)CCN2CC12CCN(c1cccc(F)c1)CC2` , according to its measured value.
Marked response: intermediate

----------
Biological target: RIPK1 (Homo sapiens (Human), UniProt Q13546)
Sequence (Q13546 1-327): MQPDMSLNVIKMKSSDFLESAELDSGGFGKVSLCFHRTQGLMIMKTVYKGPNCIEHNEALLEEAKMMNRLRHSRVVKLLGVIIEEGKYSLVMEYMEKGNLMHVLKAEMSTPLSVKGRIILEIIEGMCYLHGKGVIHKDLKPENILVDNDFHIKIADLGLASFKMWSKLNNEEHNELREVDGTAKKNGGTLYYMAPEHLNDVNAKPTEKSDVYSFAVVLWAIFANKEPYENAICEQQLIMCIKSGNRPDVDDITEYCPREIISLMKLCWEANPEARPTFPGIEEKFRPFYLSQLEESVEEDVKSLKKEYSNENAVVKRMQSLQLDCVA
Assay: RIPK1-ADP-Glo Enzymatic Assay
Settings: recombinant GST-RIPK1 kinase domain (residues 1-327), 25 nM, ten-point titration, 30 minutes pre-incubation
Metric name: pEC50
Please keep in mind that pEC50 is minus log10 of the molar concentration; only the number is needed.

As a guide, the following entries are already answered.
INSERT INTO assay_data (compound, target_or_test_system, numeric_readout) VALUES
  ('O=C(c1cc(F)cc(F)c1F)N1CCC2(CC1)CN1CC[C@@H](c3cc(F)cc(F)c3)N1C2=O [Example 4.12]', 'RIPK1 (Homo sapiens (Human), UniProt Q13546)', 7.59),
  ('O=C1N2[C@H](c3cc(F)cc(F)c3)CCN2CC12CCN(c1cc(Cl)ccn1)CC2 [Example 1.11]', 'RIPK1 (Homo sapiens (Human), UniProt Q13546)', 7.55);

Here is another compound to look at.
The reported pEC50 value, RIPK1 (Homo sapiens (Human), UniProt Q13546), for O=C1N2[C@H](c3cc(F)cc(F)c3)CCN2CC12CCN(c1ncnc3ccsc13)CC2 [Example 1.13] reads 7.80

----------
Biological target: RIPK1 (Homo sapiens (Human))
Assay: RIPK1-ADP-Glo Enzymatic Assay
Conditions: recombinant GST-RIPK1 kinase domain (residues 1-327), 25 nM, ten-point titration, 30 minutes pre-incubation
Metric name: pEC50
Please keep in mind that pEC50 is minus log10 of the molar concentration; only the number is needed.

As a guide, the following entries are already answered.
INSERT INTO measurements (compound, metric_name, numeric_readout) VALUES
  ('N#Cc1cc(N2CCC3(CC2)CN2CC[C@@H](c4cc(F)cc(F)c4)N2C3=O)ncn1', 'pEC50', 7.52),
  ('O=C1N2[C@H](c3cc(F)cc(F)c3)CCN2CC12CCN(c1cc(C(F)(F)F)ncn1)CC2', 'pEC50', 7.07),
  ('O=C1N2[C@H](c3cc(F)cc(F)c3)CCN2CC12CCN(c1ncnc3sccc13)CC2', 'pEC50', 7.62);

The reported pEC50 value, RIPK1 (Homo sapiens (Human)), for `O=C1N2[C@H](c3cc(F)cc(F)c3)CCN2CC12CCN(Cc1ccc3ccccc3n1)CC2` reads 6.15
